Give ECL signal for every item shown.
# systemName: T1, rHuman Erythropoietin R/Fc Chimera, CF (R&D Systems Cat#963-ER) (human, UniProt P19235 25-250)
# T1 construct: Bought recombinant protein; also called EPO R; EPO R/Fc; Fc part of the bought chimera not given
# T1 sequence (looked up): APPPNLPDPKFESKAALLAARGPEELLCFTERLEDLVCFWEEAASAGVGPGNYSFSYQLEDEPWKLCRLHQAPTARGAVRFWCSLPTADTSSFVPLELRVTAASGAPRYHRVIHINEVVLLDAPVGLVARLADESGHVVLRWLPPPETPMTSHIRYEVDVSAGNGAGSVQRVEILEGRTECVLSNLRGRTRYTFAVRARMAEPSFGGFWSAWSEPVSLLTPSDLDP
# testDescription: ECL multispot (MSD) binding assay, antigen spotted on plate, Fab 0.04 uM;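 further: purified Fab incubated 1 h at 20 °C on antigen spots, detected via TAG-labelled antibody, ECL read against each well's blank, with signal-to-blank of at least 4 scored as binder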
Numbers only.

Fab VH5-51_IGHD5-18*01>3_IGHJ4*01 G100K/G104T (H:KT) & V3-4_IGLJ1*01 Y93A (Fab, V domains shown, Fab; Expressed from Plasmid A (CH1, His6 and Flag tags) and Plasmid E (lambda CL); also called KT & Y93A) VH: EVQLVQSGAEVKKPGESLKISCKGSGYSFTSYWIGWVRQMPGKGLEWMGIIYPGDSDTRYSPSFQGQVTISADKSISTAYLQWSSLKASDTAMYYCARRKYSYTYDYFDYWGQGTLVTVSS VL: QTVVTQEPSFSVSPGGTVTLTCGLSSGSVSTSYYPSWYQQTPGQAPRTLIYSTNTRSSGVPDRFSGSILGNKAALTITGAQADDESDYYCVLAMGSGISYVFGTGTKVTVL ... 602

# batch size: 2; output ECL signal per entry
1. Fab VH5-51_IGHD5-18*01>3_IGHJ4*01 G100K/G104T (H:KT) & V3-4_IGLJ1*01 I98A (Fab, V domains shown, Fab; Expressed from Plasmid A (CH1, His6 and Flag tags) and Plasmid E (lambda CL); also called KT & I98A) VH: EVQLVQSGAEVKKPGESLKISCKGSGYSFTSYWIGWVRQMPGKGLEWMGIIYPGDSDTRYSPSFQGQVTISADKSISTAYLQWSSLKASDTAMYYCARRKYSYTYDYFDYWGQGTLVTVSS VL: QTVVTQEPSFSVSPGGTVTLTCGLSSGSVSTSYYPSWYQQTPGQAPRTLIYSTNTRSSGVPDRFSGSILGNKAALTITGAQADDESDYYCVLYMGSGASYVFGTGTKVTVL
2. Fab VH5-51_IGHD5-18*01>3_IGHJ4*01 G100K/G104T (H:KT) & V3-4_IGLJ1*01 M94A (Fab, V domains shown, Fab; Expressed from Plasmid A (CH1, His6 and Flag tags) and Plasmid E (lambda CL); also called KT & M94A) VH: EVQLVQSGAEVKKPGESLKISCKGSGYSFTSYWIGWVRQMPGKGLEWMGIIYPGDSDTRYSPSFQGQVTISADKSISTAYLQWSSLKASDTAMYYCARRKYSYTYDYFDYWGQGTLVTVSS VL: QTVVTQEPSFSVSPGGTVTLTCGLSSGSVSTSYYPSWYQQTPGQAPRTLIYSTNTRSSGVPDRFSGSILGNKAALTITGAQADDESDYYCVLYAGSGISYVFGTGTKVTVL

584
614

Reference for the values: patent US20120316071A1
